Target: recombinant homotrimeric HA A/Vietnam/1203/04 H5N1 (Influenza A virus A/VietNam/1203/2004(H5N1))
Test: protein microarray, purified IgG, trimeric HA
Settings: remark: other sources report otherwise
READOUT KIND: Trimeric HA Binding: RLU (RLU)
Quick note: give the figure in RLU, leave out the unit.

Field: example entries. Status: answers known.
[[record]]
binder = "TCN-542 (5079_A16) (antibody, V domains shown) VH: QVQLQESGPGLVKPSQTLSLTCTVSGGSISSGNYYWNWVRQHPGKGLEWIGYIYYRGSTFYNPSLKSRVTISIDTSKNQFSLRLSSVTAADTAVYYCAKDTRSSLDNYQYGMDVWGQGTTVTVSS VL: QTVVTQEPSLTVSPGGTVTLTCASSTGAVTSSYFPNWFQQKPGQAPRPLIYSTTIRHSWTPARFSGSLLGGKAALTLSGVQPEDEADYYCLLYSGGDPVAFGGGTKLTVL"
val = 1060

[[record]]
binder = "TCN-555 (5246_L16) (antibody, V domains shown) VH: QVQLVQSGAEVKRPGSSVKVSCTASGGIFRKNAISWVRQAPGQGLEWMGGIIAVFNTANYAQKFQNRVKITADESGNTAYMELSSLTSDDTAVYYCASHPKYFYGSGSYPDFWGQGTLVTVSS VL: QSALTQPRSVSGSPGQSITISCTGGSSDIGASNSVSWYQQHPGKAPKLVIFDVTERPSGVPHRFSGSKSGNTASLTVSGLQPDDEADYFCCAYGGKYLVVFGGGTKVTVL"
val = 26500

[[record]]
binder = "TCN-534 (5249_B02) (antibody, V domains shown) VH: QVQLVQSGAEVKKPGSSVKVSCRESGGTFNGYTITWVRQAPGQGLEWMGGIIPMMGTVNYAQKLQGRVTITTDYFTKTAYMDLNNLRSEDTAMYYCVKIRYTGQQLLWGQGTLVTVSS VL: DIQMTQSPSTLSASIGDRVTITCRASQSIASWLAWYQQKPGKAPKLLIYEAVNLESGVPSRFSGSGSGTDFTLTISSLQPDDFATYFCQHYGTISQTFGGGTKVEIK"
val = 25900

[[record]]
binder = "TCN-522 (3212_I12) (antibody, V domains shown) VH: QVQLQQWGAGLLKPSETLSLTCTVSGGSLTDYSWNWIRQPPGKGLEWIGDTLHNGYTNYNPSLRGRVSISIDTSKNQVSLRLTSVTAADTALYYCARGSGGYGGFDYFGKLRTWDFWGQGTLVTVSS VL: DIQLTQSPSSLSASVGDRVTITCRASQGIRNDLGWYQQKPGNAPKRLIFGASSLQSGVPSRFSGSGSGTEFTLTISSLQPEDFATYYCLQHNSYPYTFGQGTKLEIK"
val = 11300


-- ask Look up Trimeric HA Binding: RLU for this binder: TCN-546 (5089_L08) (antibody, V domains shown) VH: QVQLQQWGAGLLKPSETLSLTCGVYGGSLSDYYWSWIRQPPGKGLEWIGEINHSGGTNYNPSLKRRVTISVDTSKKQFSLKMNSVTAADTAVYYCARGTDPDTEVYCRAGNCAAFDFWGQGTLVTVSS VL: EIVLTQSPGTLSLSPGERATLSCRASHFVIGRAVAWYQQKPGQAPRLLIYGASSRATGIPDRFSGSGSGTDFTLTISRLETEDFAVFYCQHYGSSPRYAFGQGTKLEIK
-- reply 1200
